Origin of the recorded values: ChEMBL document CHEMBL1138591

- assay_remarks: Half life in fasted Zucker fa/fa rat at 30 mg/kg, po
- Assay type: ADME, organism-based
- Parameters: dose 30 mg/kg, route oral
- run_conditions: in vivo
endpoint_label: half-life (h)
// return numeric value only (unit: h, not printed)

What measured half-life goes with `Cc1c(C(=O)NN2CCCCC2)nn(-c2ccc(Cl)cc2Cl)c1-c1ccc(Cl)s1` ?
20.8

----------
Measured EC50, listed per entry for reference.
- study_system: Cannabinoid receptor 2 (Homo sapiens, UniProt P34972)
- Sequence (P34972 whole entry): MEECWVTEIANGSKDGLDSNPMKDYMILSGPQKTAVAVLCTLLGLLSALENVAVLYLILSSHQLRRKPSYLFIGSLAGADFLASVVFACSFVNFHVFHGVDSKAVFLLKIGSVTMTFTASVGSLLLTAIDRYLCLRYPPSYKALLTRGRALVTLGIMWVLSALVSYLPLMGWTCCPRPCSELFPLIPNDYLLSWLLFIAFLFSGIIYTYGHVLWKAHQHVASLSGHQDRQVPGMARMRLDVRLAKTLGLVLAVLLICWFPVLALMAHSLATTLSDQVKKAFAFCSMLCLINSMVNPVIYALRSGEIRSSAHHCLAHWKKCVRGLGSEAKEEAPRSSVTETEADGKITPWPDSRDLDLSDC
- assay_remarks: Antagonist activity at human cannabinoid CB2 receptor expressed in CHOK1 cells assessed as cAMP activity
// return numeric value only (unit: µM, not printed)

Worked examples, 8 compounds total:
compound	readout_units	EC50
Cc1c(C(=O)NN2CCOCC2)nn(-c2ccc(Cl)cc2Cl)c1-c1ccc(Cl)s1	µM	7.43
CCc1c(C(=O)NN2CCCCC2)nn(-c2ccc(Cl)cc2Cl)c1-c1ccc(Br)s1	µM	19.5
Cc1c(C(=O)NN2CCCC2)nn(-c2ccc(Cl)cc2Cl)c1-c1ccc(Cl)s1	µM	20.9
Cc1c(C(=O)NN2CCCCC2)nn(-c2ccc(Cl)cc2Cl)c1-c1cccs1	µM	7.55
Cc1c(C(=O)NN2CCCCC2)nn(-c2ccc(Cl)cc2Cl)c1-c1ccc(Cl)s1	µM	23.7
Cc1c(C(=O)NN2CCCCC2)nn(-c2ccc(Cl)cc2Cl)c1-c1ccc(Br)s1	µM	23.2
Cc1c(C(=O)NN2CCCCCC2)nn(-c2ccc(Cl)cc2Cl)c1-c1ccc(Cl)s1	µM	12.8
Cc1c(C(=O)NN2CC3CCCC3C2)nn(-c2ccc(Cl)cc2Cl)c1-c1ccc(Cl)s1 (stereo not given)	µM	15.7

What measured EC50 goes with `CCc1c(C(=O)NN2CCCCC2)nn(-c2ccc(Cl)cc2Cl)c1-c1ccc(Cl)s1` ?
25.9

What measured EC50 goes with `Cc1c(C(=O)NN2CCCCC2)nn(-c2ccc(Cl)cc2Cl)c1-c1ccc(I)s1` ?
29.4
